Target: NHE3 (UniProt P48764)
Assay: Cell-based NHE3 activity under transient conditions (BCECF-AM intracellular pH, FLIPR)
Set-up: species or system Rat or Human
Settings: intermediates, opossum kidney cells expressing NHE3, read-out: Cell-based NHE3 inhibition IC50 (uM) under transient conditions
Readout name: log10 IC50 (log10 of the value in µM)

Molecule | Observed result
CN1Cc2c(Cl)cc(Cl)cc2C(c2cccc3c2CNC3=O)C1 (centres unmarked) [Intermediate B2-6] | -0.77
CN1Cc2c(Cl)cc(Cl)cc2C(c2ccc3c(c2)S(=O)(=O)NC=C3)C1 (centres unmarked) [Intermediate E1-9] | 0.50
CN1Cc2c(Cl)cc(Cl)cc2C(c2ccc3cn[nH]c3c2)C1 (centres unmarked) [Intermediate D1-7] | 0.16
CN1Cc2c(Cl)cc(Cl)cc2C(c2ccc3cc[nH]c(=O)c3c2)C1 (centres unmarked) [Intermediate B5-6] | 0.23
CN1Cc2c(Cl)cc(Cl)cc2C(c2ccc3c(c2)CNC3=O)C1 (centres unmarked) [Intermediate B4-6] | -0.10

---

Biological target: NHE3 (UniProt P48764)
Experiment: Cell-based NHE3 activity under persistent conditions (60 min pre-incubation, compound removed)
Parameters: species or system Rat or Human
Conditions: opossum kidney cells expressing NHE3, read-out: Cell-based NHE3 inhibition IC50 (uM) under persistent conditions
Counter-ions that a name gives are not always drawn.

Compound | Target under test | Units symbol | IC50
CN1Cc2c(Cl)cc(Cl)cc2C(c2ccc3c(c2)C(=O)N(CCOCCOCCOCCNC(=O)[C@H](O)[C@@H](O)C(=O)NCCOCCOCCOCCN2Cc4ccc(C5CN(C)Cc6c(Cl)cc(Cl)cc65)cc4C2=O)C3)C1 (some centres unmarked) [Embodiment J2] | NHE3 (UniProt P48764) | µM | 0.05
CN1Cc2c(Cl)cc(Cl)cc2C(c2ccc3c(c2)C(=O)N(CCOCCOCCOCCNC(=O)CCC(N)(CCC(=O)NCCOCCOCCOCCN2Cc4ccc(C5CN(C)Cc6c(Cl)cc(Cl)cc65)cc4C2=O)CCC(=O)NCCOCCOCCOCCN2Cc4ccc(C5CN(C)Cc6c(Cl)cc(Cl)cc65)cc4C2=O)C3)C1 (centres unmarked) [Embodiment I3] | NHE3 (UniProt P48764) | µM | 0.13
CN1Cc2c(Cl)cc(Cl)cc2C(c2ccc3c(c2)C(=O)N(CCOCCOCCOCCNC(=O)COCC(=O)NCCOCCOCCOCCN2Cc4ccc(C5CN(C)Cc6c(Cl)cc(Cl)cc65)cc4C2=O)C3)C1 (centres unmarked) [Embodiment J1] | NHE3 (UniProt P48764) | µM | 0.03
CN1Cc2c(Cl)cc(Cl)cc2C(c2ccc3c(c2)C(=O)N(CCOCCOCCNC(=O)NCCCCNC(=O)NCCOCCOCCN2CCc4ccc(C5CN(C)Cc6c(Cl)cc(Cl)cc65)cc4C2=O)CC3)C1 (centres unmarked) [Embodiment B3] | NHE3 (UniProt P48764) | µM | 0.41
CN1Cc2c(Cl)cc(Cl)cc2C(c2ccc3c(c2)C(=O)N(CCOCCOCCNC(=O)[C@H](O)[C@H](O)[C@@H](O)[C@@H](O)C(=O)NCCOCCOCCN2Cc4ccc(C5CN(C)Cc6c(Cl)cc(Cl)cc65)cc4C2=O)C3)C1 (some centres unmarked) [Embodiment J4] | NHE3 (UniProt P48764) | µM | 0.05
CN1Cc2c(Cl)cc(Cl)cc2C(c2ccc3c(c2)CN(CCOCCOCCNC(=O)NCCCCNC(=O)NCCOCCOCCN2Cc4cc(C5CN(C)Cc6c(Cl)cc(Cl)cc65)ccc4C2=O)C3=O)C1 (centres unmarked) [Embodiment B4] | NHE3 (UniProt P48764) | µM | 0.45
CN1Cc2c(Cl)cc(Cl)cc2C(c2ccc3cnn(CCOCCOCCOCCNC(=O)NCCCCNC(=O)NCCOCCOCCOCCn4ncc5ccc(C6CN(C)Cc7c(Cl)cc(Cl)cc76)cc54)c3c2)C1 (centres unmarked) [Embodiment D2-P2 hydrochloride salt] | NHE3 (UniProt P48764) | µM | 0.12
CN1Cc2c(Cl)cc(Cl)cc2C(c2ccc3c(c2)S(=O)(=O)N(CCOCCOCCNC(=O)NCCCCNC(=O)NCCOCCOCCN2Cc4ccc(C5CN(C)Cc6c(Cl)cc(Cl)cc65)cc4S2(=O)=O)C3)C1 (centres unmarked) [Embodiment A1] | NHE3 (UniProt P48764) | µM | 0.5

---

Molecular target: NHE3 (UniProt P48764)
Sequence (P48764 1-834): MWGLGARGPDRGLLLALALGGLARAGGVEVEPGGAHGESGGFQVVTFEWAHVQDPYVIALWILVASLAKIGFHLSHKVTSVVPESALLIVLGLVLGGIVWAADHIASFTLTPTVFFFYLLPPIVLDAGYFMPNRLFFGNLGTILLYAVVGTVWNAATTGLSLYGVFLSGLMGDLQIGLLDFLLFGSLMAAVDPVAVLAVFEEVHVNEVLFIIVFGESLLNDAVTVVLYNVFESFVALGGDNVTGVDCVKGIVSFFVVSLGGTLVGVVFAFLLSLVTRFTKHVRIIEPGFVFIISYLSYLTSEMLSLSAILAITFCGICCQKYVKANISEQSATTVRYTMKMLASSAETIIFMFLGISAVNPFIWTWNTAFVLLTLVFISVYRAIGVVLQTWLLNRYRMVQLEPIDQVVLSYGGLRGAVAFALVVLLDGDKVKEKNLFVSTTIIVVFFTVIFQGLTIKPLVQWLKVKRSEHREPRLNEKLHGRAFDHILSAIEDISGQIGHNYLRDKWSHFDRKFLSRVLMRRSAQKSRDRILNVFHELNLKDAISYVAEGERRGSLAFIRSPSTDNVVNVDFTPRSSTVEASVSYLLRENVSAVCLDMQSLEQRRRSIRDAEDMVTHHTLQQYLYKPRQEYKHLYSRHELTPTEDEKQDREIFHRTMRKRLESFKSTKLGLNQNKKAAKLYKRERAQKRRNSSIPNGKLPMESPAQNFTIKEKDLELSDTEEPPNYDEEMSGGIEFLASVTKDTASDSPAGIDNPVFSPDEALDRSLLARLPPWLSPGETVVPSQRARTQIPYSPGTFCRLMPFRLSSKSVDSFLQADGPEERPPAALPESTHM
Test: Cell-based NHE3 activity under transient conditions (BCECF-AM intracellular pH, FLIPR)
Parameters: species or system Rat or Human
Settings: intermediates, opossum kidney cells expressing NHE3, read-out: Cell-based NHE3 inhibition IC50 (uM) under transient conditions
Overview of recorded IC50 for various compounds
Readout name: IC50 (µM)

Compound | Observed result
CN1Cc2c(Cl)cc(Cl)cc2C(c2ccc3c(c2)C(=O)NC3)C1 (stereo not shown) [Intermediate B1-6] | 0.53
CN1Cc2c(Cl)cc(Cl)cc2C(c2ccc3c(c2)S(=O)(=O)NCC3)C1 (stereo not shown) [Intermediate C1-11] | 1.24
CN1Cc2c(Cl)cc(Cl)cc2C(c2ccc3c(c2)S(=O)(=O)NC3)C1 (stereo not shown) [Intermediate A1-13] | 0.6
CN1Cc2c(Cl)cc(Cl)cc2C(c2cccc3c2CNS3(=O)=O)C1 (stereo not shown) [Intermediate A2-13] | 1.63

Where do these numbers come from? They come from patent US20240082406A1.
